These data points were gathered from paper PMC10675604.

molecular target: monoacylglycerol lipase (MAGL) (Homo sapiens, UniProt Q99685); construct: gene MGLL; experiment: colorimetric MAGL inhibition assay (Cayman kit […], 4-nitrophenyl acetate hydrolysis, […] nm); type: biochemical
Sequence (Q99685 whole entry): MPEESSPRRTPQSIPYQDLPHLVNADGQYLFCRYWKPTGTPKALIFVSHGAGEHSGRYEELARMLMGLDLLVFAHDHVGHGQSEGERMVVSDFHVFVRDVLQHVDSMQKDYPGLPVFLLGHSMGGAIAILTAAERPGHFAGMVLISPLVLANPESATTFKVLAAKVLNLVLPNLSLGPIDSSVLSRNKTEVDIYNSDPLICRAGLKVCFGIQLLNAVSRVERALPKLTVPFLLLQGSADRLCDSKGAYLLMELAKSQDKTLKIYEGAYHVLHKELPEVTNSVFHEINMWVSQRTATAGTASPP
assay_metric: pIC50
Note on pIC50: it is the negative log10 of concentration, concentration in mol/L.

Which pIC50 reading was recorded for the molecule `CC[C@@H](C(N)=O)N1CCCC1=O` ?
5.52
